Values compiled from patent US8691855B2.

molecular target: vanilloid receptor (Rattus norvegicus); construct: DRG nerve cells from the primary culture of 2 days were equilibrated; endogenous in cells; assay: 45Ca influx test (antagonist calcium uptake test) in rat DRG neurons stimulated with capsaicin; details: neonatal SD rat DRG neurons; capsaicin 0.5 μM; 45Ca
Sequence (O35433 whole entry): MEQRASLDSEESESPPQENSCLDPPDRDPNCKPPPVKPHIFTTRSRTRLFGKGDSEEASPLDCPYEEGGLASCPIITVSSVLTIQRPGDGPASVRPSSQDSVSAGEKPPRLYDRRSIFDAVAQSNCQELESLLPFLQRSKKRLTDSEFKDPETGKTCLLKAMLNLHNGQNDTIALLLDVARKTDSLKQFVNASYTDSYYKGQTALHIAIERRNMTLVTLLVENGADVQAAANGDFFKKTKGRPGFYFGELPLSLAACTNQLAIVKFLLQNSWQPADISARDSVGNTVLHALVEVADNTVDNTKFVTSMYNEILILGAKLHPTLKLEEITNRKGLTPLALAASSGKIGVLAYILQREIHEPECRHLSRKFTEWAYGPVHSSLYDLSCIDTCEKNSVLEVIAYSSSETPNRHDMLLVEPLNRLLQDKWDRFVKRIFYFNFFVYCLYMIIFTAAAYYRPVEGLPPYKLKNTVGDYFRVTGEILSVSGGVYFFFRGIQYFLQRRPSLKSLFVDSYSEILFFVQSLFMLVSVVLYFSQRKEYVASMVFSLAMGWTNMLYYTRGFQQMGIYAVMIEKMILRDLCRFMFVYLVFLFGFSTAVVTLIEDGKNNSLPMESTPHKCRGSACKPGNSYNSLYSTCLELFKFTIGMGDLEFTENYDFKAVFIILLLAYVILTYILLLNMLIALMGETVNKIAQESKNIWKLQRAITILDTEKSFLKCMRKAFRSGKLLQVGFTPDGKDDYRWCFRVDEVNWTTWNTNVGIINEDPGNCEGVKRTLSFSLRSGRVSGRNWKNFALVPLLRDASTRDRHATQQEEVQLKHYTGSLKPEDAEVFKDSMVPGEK
pIC50: −log10 of the molar value.
Listed below: pIC50 values for each entry.

COMPOUND: CC(C)c1cccc(Oc2nc(C(=O)NCc3cc(F)c(NS(C)(=O)=O)c(F)c3)co2)c1 [Example 9]
pIC50: 6.36

COMPOUND: COc1cccc(-c2nc(C(=O)N[C@H](C)c3cc(F)c(NS(C)(=O)=O)c(F)c3)co2)c1 (stereo in doubt) [Example 68]
pIC50: 5.77

COMPOUND: CCCOc1cccc(-c2nc(C(=O)N[C@H](C)c3cc(F)c(NS(C)(=O)=O)c(F)c3)co2)c1 [Example 71]
pIC50: 5.92

COMPOUND: CCCc1c(Oc2nc(C(=O)N[C@H](C)c3cc(F)c(NS(C)(=O)=O)c(F)c3)co2)cccc1C(F)(F)F [Example 42]
pIC50: 6.89

COMPOUND: C[C@@H](NC(=O)c1coc(Oc2cccc([N+](=O)[O-])c2)n1)c1cc(F)c(NS(C)(=O)=O)c(F)c1 [Example 18]
pIC50: 5.54

COMPOUND: C[C@H](NC(=O)c1ccc(-c2cccc(C(F)(F)F)c2)o1)c1cc(F)c(NS(C)(=O)=O)c(F)c1 [Example 109]
pIC50: 6.57

COMPOUND: C[C@@H](NC(=O)c1coc(-c2ccc3ccccc3c2)n1)c1cc(F)c(NS(C)(=O)=O)c(F)c1 [Example 89]
pIC50: 5.57
